Entry source: paper PMC11880807

Biological target: T1, EXOG-ΔC68 (human, UniProt Q9Y2C4 59-300)
T1 sequence: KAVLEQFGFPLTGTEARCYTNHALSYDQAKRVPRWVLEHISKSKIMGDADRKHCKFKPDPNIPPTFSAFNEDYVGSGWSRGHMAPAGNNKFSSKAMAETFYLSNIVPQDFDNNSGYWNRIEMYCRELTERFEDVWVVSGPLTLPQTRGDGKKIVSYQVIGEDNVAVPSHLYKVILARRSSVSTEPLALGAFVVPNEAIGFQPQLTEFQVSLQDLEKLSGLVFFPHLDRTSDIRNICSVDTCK
Assay: MST
measured.property: pKd
One number for each entry, as −log10 of the molar value.

Item: AGUUCGUUAUCGUCGC (ssRNA) [ssRNA 16-mer O11] | pKd: 6.81
